Tested on: RARb:RXRa (NR concentration 270 nM, RXRa partner concentration 90 nM)
Test: PBM binding z-score (relative to random genomic background probes); higher = stronger binding; sequences stand for … in GC…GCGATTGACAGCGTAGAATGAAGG
PBM binding z-score listing for selected sequences.
Just the number, please, no unit attached.

[[record]]
record_sequence = "CGCCCAAGGTCAGCAGGTCAGTGAAAGCGACGTG"
result = 5.18

[[record]]
record_sequence = "ACTCGGGGGACAAAGGTCAGAGCTACGCCAGTGA"
result = 4.91

[[record]]
record_sequence = "TCGAGTCGGTTACGGGGGCATTCAGGGATGAAGA"
result = 1.71

[[record]]
record_sequence = "TCGAATAGGTTACGGGGGCATTCAGGGATGAAGA"
result = 3.33

[[record]]
record_sequence = "CAAACTAGGTCACGAAAGGTCAAAATCGAATGAC"
result = 5.41

[[record]]
record_sequence = "CTAACTAGGTCAAAGGACAGTGAAAGGCGACGTA"
result = 4.07

[[record]]
record_sequence = "CTCGAAAGGTCGGTTGAGGTCAGTATACGGATAA"
result = 4.13

[[record]]
record_sequence = "CCGAGTAGCTTACGAGGGGGCATTCAGTGCGAAT"
result = 0.8

[[record]]
record_sequence = "CGAACTAGGTGATTGACAGGACAGTGAATAGTAA"
result = 0.167

[[record]]
record_sequence = "ATATGTAGGTTAGCGTCATTCAGAAAGTAGGGAA"
result = 0.594


query: What PBM binding z-score appears in the records for this sequence with RARb:RXRa (NR concentration 270 nM, RXRa partner concentration 90 nM)? `CGTCCAAGGTCAGCAGGTCAGAGAAAGCGACGTG`
result: 5.39

query: Please state recorded PBM binding z-score (tested on RARb:RXRa (NR concentration 270 nM, RXRa partner concentration 90 nM)) of `CTATGTAGGTTAAGGGGGGCATTCAGTTTGAAAG`
result: 3.35
